test system: K-562 leukemia; assay: NCI-60 one-dose screen, 48 h (100 = growth as untreated, 0 = no growth, -100 = all killed); conditions: 10 µM unless noted
This is part of a sample that, as a whole, favours compounds with a hit. Of some 83,000 tested, about 20% had one in any assay.
# 1 = growth below 60% (exclusive); -1 = growth at/above 60%

## Task Please determine if "COc1cc(-c2nn(C(C)(C)C)cc2-c2ccnc(NCCCNS(=O)(=O)c3cccc(F)c3)n2)ccc1Cl" is below 60% in terms of growth.
## Result 1

## Task Please determine if "C=C=COc1cccc(/C(N)=N/C(N)=N/c2nc3ccccc3s2)c1" is below 60% in terms of growth.
## Result 1

## Task Please determine if "C#Cc1ccc(C(=O)NCc2ccc(/C=C/C(=O)c3nccn3C)cc2)cc1" is below 60% in terms of growth.
## Result 1

## Task Please determine if CCOC(=O)C(=O)/C(=C\c1ccc(Cl)cc1)C(=O)N1C(=S)NC(=O)C1CC(C)C (stereo not given) is below 60% in terms of growth.
## Result -1

## Task Please determine if c1ccc(C(c2nc3ncncc3[nH]2)N2CSc3nc4ccccc4n3C2)cc1 (stereo not given) is below 60% in terms of growth.
## Result -1

## Task Please determine if CCNC(=O)N1CCc2cc(OC)c(OCCc3ccc(OC)cc3)cc2C1c1ccc([N+](=O)[O-])cc1C (stereo not given) is below 60% in terms of growth.
## Result 1

## Task Please determine if "O=C(Nc1ccc2c(ccn2Cc2ccccn2)c1)c1ccnnc1" is below 60% in terms of growth.
## Result -1

## Task Please determine if "O=C(CSc1nc2ccccc2c(=O)n1-c1ccccc1)Nc1cccc(C(=O)/C=C/c2ccccc2)c1" is below 60% in terms of growth.
## Result -1

====

tested on: HCT-15 colon; assay: NCI-60 one-dose screen, 48 h (100 = growth as untreated, 0 = no growth, -100 = all killed); conditions: 10 µM unless noted
Compounds without any hit were thinned out: in the full panel of roughly 83,000, 20% have a hit.
So I've got a bunch of compounds here, and I need their growth values.
Report as a plain number; the unit % is understood.

## Task Request the reported growth associated with "COc1cc(Cn2cc3c(c2)-c2onc(CN4CCOCC4)c2CC3)cc(OC)c1OC"
## Result 97.9

## Task Request the reported growth associated with "O=C(CCC(=O)N1CCOCC1)OCCCCCCSc1ccc([N+](=O)[O-])c2nonc12"
## Result -67.4

## Task Request the reported growth associated with "O=C(Nc1cccc(C(F)(F)F)c1)c1cc(-c2ccc(F)cc2F)ccc1O"
## Result 8.57

## Task Request the reported growth associated with CCO/C=N/C1=C(C#N)C(c2ccc(F)cc2)c2sc3c(C)cccc3c2O1 (stereo not given)
## Result 11.9

## Task Request the reported growth associated with "NS(=O)(=O)c1ccc(Nc2nc(N/N=C/c3ccccn3)nc(Nc3ccccc3)n2)cc1"
## Result 17.6

====

So I've got a bunch of molecules here, and I need their growth values.
tested on: HCT-15 colon; test: NCI-60 one-dose screen, 48 h (100 = growth as untreated, 0 = no growth, -100 = all killed); details: 10 µM unless noted
This is part of a sample that, as a whole, favours compounds with a hit. Of some 83,000 tested, about 20% had one in any assay. The source made the active and inactive calls. Rule for the calls: active = growth percent below 10; inactive = the rest.

## Task Request the reported growth associated with "C#Cc1ccc(C(=O)NCc2ccc(/C=C/C(=O)c3nccn3C)cc2)cc1"
## Result 2.77% (active)

## Task Request the reported growth associated with "CC1(C)[C@@H](O)CC[C@]2(C)[C@H]3CC[C@@H]4[C@H]5[C@H](C(=O)/C=C\c6ccc([N+](=O)[O-])cc6)CC[C@]5(O)CC[C@@]4(C)[C@]3(C)CC[C@@H]12"
## Result 27.5% (inactive)

## Task Request the reported growth associated with "CS(=O)(=O)c1ccc(-c2nn(-c3ccccc3)cc2/C=N/NC(=O)c2nc(N)n[nH]2)cc1"
## Result 88.9% (inactive)

## Task Request the reported growth associated with "COc1cc2oc(-c3cccc(NC(=O)c4cc(N)ccc4Cl)c3)cc(=O)c2c(OC)c1OC"
## Result 85.7% (inactive)

## Task Request the reported growth associated with "O=C(Nc1nc2ccc([N+](=O)[O-])cc2s1)Nc1ccccc1Br"
## Result 24.3% (inactive)

## Task Request the reported growth associated with "Nc1nc(-c2cccc([N+](=O)[O-])c2)c(N=Nc2ccc(Br)cc2)s1"
## Result 0.133% (active)

## Task Request the reported growth associated with "Nc1cc(F)ccc1NC(=O)c1ccc(NC(=O)C/C=C/c2cccnc2)cc1"
## Result 29.5% (inactive)

## Task Request the reported growth associated with "COc1ccc2[nH]cc(-c3csc4nc(-c5ccccc5)cn34)c2c1"
## Result 11.3% (inactive)

## Task Request the reported growth associated with "Cc1ccc(NC(=O)CNc2cc(C(N)=O)cc(F)c2C)c(Cl)c1"
## Result 103% (inactive)

## Task Request the reported growth associated with "O=C(O)c1ccc(-n2cc(CNc3cc(F)c(F)c(F)c3)c(-c3ccc(F)cc3)n2)cc1"
## Result 68.1% (inactive)

## Task Request the reported growth associated with "O=c1[nH]c2ccccc2cc1CSc1ccccc1Nc1nccc(-c2ccc(Cl)cc2)n1"
## Result 101% (inactive)

## Task Request the reported growth associated with COc1cc(/C=N/NC(=O)c2cn(C3CC3)c3c(OC)c(N4CC5CCCNC5C4)c(F)cc3c2=O)ccc1O (centres undefined)
## Result 32% (inactive)

## Task Request the reported growth associated with "Cn1ccnc1C(=O)/C=C/c1ccc(CNC(=O)c2ccc(F)cc2)cc1"
## Result 8.09% (active)

## Task Request the reported growth associated with "N#Cc1cccc(NC(=O)c2cc(-c3ccc(F)cc3F)ccc2O)c1"
## Result 6.97% (active)

## Task Request the reported growth associated with COc1cc(C2N=C(NNc3ccccc3)NC(C)=C2C(C)=O)ccc1O (centres undefined)
## Result 81% (inactive)

## Task Request the reported growth associated with "N/C(=N\C(N)=N\c1nc2ccccc2s1)c1ccc(C(F)(F)F)cc1"
## Result 28.8% (inactive)

## Task Request the reported growth associated with "Oc1ccc(CSc2nnc(-c3ccc(Cl)cc3)n2-c2ccccc2)c2cccnc12"
## Result 14.4% (inactive)

## Task Request the reported growth associated with "CCOC(=O)c1c(Nc2ccccc2)nn2c(-c3ccccc3)ccnc12"
## Result 63.3% (inactive)

## Task Request the reported growth associated with "Cc1ccc(S(=O)(=O)N(CC[C@@H]2C[C@H]2c2cc3ccccc3o2)S(=O)(=O)c2ccc(C)cc2)cc1"
## Result 94.5% (inactive)

====

system: MCF7 breast; experiment: NCI-60 one-dose screen, 48 h (100 = growth as untreated, 0 = no growth, -100 = all killed); conditions: 10 µM unless noted
The panel holds about 83,000 compounds, 20% with a hit somewhere; the sample as a whole holds those more often.
measured parameter: growth (%)
Report as a plain number; the unit % is understood.

## Task Request the reported growth associated with "O=S(=O)(Nc1ccc(I)cc1Cl)c1ccc(-c2cnc(C3CC3)o2)cc1"
## Result 23.1

## Task Request the reported growth associated with "C#CCOc1ccc(/C=N\Nc2nc(-c3ccc(C)cc3)cs2)cc1OC"
## Result 62.5

## Task Request the reported growth associated with "O=C(Nc1ccc(F)c(F)c1)c1cc(-c2ccc(F)cc2F)ccc1O"
## Result 0.642

## Task Request the reported growth associated with COc1cc(C2N=C(NNc3ccccc3)NC(C)=C2C(C)=O)ccc1O (centres undefined)
## Result 88.7

## Task Request the reported growth associated with "C#C[C@]1(O)CC[C@H]2[C@@H]3CC=C4c5sc(-c6ccc7c(c6)OCO7)nc5CC[C@]4(C)[C@H]3CC[C@@]21C"
## Result -1.98

## Task Request the reported growth associated with "N#Cc1cnc2ccc(-c3cnc(N)nc3)cc2c1N1CCc2cc(F)c(Cl)cc21"
## Result 5.81

## Task Request the reported growth associated with "NS(=O)(=O)c1ccc(Nc2nc(N/N=C/CCc3ccccc3)nc(Nc3ccccc3)n2)cc1"
## Result 96.3

## Task Request the reported growth associated with "NC(N)=Nc1ccc(Oc2cccc(Nc3ccc(Cl)c(C(F)(F)F)c3)c2)cn1"
## Result -60.3

## Task Request the reported growth associated with "O=C(CSc1nnc(-c2ccc(Cl)cc2)n1-c1ccccc1)Nc1cccc(Cl)c1"
## Result 65.1

## Task Request the reported growth associated with CCNC(=O)N1CCc2cc(OC)c(OCCc3ccc(OC)cc3)cc2C1c1ccc([N+](=O)[O-])cc1C (centres undefined)
## Result 18.4

## Task Request the reported growth associated with "CCCCCc1ccc(S(=O)(=O)Nc2cccc(-c3csc(NC(=O)CN4CCN(CCO)CC4)n3)c2)cc1"
## Result 35.8

## Task Request the reported growth associated with "COc1cc(/C=C/C(=O)c2ccc(NC(=O)CSc3nnc(-c4ccc(-c5nc6ccc(Cl)cc6[nH]5)cc4)o3)cc2)cc(OC)c1OC"
## Result 91.8

## Task Request the reported growth associated with "COC(=O)c1ccc(NC2=C/C(=N/S(=O)(=O)c3ccc(C(=O)O)cc3)c3ccccc3C2=O)cc1"
## Result -58.2

## Task Request the reported growth associated with "N/C(=N\C(N)=N\c1nc2ccccc2s1)c1ccc2ccccc2c1"
## Result 79.3

## Task Request the reported growth associated with "CN(C)CCCOc1ccc2c(c1)CN(C(=O)c1cc(C(=O)N3Cc4cccc(F)c4C3)ccc1O)C2"
## Result 83.2

## Task Request the reported growth associated with "Clc1nc2ccccc2nc1-c1nnc(C2CCCCC2)o1"
## Result 37.4

## Task Request the reported growth associated with "NC(=O)c1c(NC(=O)c2ccccc2C(F)(F)F)sc2c1CCC(=O)C2"
## Result 5.93

## Task Request the reported growth associated with COc1c(N2CC3CCCNC3C2)c(F)cc2c(=O)c(C(=O)N/N=C/c3ccc(Br)cc3)cn(C3CC3)c12 (centres undefined)
## Result 52.4

## Task Request the reported growth associated with "CS(=O)(=O)Nc1cc(-c2ccc3ncc(C#N)c(NCc4ccccc4O)c3c2)cnc1Cl"
## Result 1.5
